Biological target: Neu5Ac(a2-3)Gal(b1-4)[Fuc(a1-3)]GlcNAc(b1-3)GalNAc
Assay: glycan array binding signal (z-score within array); higher = stronger binding
Details: glycan notation: IUPAC condensed, linker removed
The full list was thinned out, with the strongest signals kept by preference.
reported_property: glycan array binding signal (z-score)

Gal 2 (Canis lupus) (protein) MSGKFEVMNMDMKLGGTLKIKGKIAGDADGFVINLGQGSDKLNLHFNPRFHESVIVCNSRNWGQEQRDKHMCFSPGSEVKFTVTFENDGFKVKLPDGHQLTFPNRLGHSHLSYLGVQGGLKVSSFKIE | 1.21
CPA (Cicer arietinum) (protein) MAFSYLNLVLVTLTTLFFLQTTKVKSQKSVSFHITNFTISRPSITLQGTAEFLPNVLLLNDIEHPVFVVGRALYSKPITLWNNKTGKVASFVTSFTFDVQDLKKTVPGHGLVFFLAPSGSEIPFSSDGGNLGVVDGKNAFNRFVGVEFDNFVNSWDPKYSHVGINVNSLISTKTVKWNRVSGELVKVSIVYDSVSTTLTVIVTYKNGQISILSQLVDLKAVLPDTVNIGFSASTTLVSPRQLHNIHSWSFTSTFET | -0.322
